The values you see were collected from patent US11667652B2.

system.under.test: MCL1/Bim (Homo sapiens (Human), UniProt Q07820)
Sequence (Q07820 171-327): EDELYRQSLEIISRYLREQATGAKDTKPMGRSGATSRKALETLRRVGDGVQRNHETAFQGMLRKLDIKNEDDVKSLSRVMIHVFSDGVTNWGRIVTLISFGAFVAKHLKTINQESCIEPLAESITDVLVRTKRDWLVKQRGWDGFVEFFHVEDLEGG
experiment: MCL1/Bim Binding AlphaLISA Assay
condition.parameters: recombinant human 6xHis-MCL1 (171-327), biotinylated Bim peptide (51-76)

- molecule: "CO[C@H]1/C=C/C[C@H](C)C[S@@](=O)(NC(=O)c2cnn(C)c2)=NC(=O)c2ccc3c(c2)N(C[C@@H]2CC[C@H]21)C[C@]1(CO3)C[C@@H]2C[C@@H]2c2cc(Cl)ccc21"
  IC50 [pM]: 101
- molecule: "COc1nn(C)cc1C(=O)N[S@@]1(=O)=NC(=O)c2ccc3c(c2)N(C[C@@H]2CC[C@H]2C(O)(C#CCN(C)C)/C=C/C[C@H](C)C1)C[C@@]1(CCCc2cc(Cl)ccc21)CO3 (some centres unmarked)"
  IC50 [pM]: 45
- molecule: "COc1nn(C)cc1C(=O)N[S@@]1(=O)=NC(=O)c2ccc3c(c2)N(C[C@@H]2CC[C@H]2[C@H]2OCC[C@@H]2C[C@H](OC)[C@H](C)C1)C[C@@]1(CCCc2cc(Cl)ccc21)CO3 (mixture of isomers)"
  IC50 [pM]: 72
- molecule: "COc1nn(C)cc1C(=O)N[S@@]1(=O)=NC(=O)c2ccc3c(c2)N(C[C@@H]2CC[C@H]2[C@@](O)(CCN2CCOCC2)/C=C/C[C@H](C)C1)C[C@@]1(CCCc2cc(Cl)ccc21)CO3"
  IC50 [pM]: 132
- molecule: "CO[C@H]1/C=C/[C@H](O)[C@H](C)C[S@@](=O)(Nc2ncnc3nn(C)cc23)=NC(=O)c2ccc3c(c2)N(C[C@@H]2CC[C@H]21)C[C@@]1(CCCc2cc(Cl)ccc21)CO3"
  IC50 [pM]: 39

====

Measured IC50, listed per entry.
system.under.test: MCL1/Bim (Homo sapiens (Human), UniProt Q07820)
experiment: MCL1/Bim Binding AlphaLISA Assay
condition.parameters: recombinant human 6xHis-MCL1 (171-327), biotinylated Bim peptide (51-76)
measurement.kind: IC50 (nM)

- compound: "COc1nn(C)cc1C(=O)N[S@@]1(=O)=NC(=O)c2ccc3c(c2)N(C[C@@H]2CC[C@H]2[C@@](C)(OC)/C=C/C[C@H](C)C1)C[C@@]1(CCCc2cc(Cl)ccc21)CO3"
  system.under.test: "MCL1/Bim (Homo sapiens (Human), UniProt Q07820)"
  endpoint.value: 4.39
- compound: "COc1nn(C)cc1C(=O)N[S@@]1(=O)=NC(=O)c2ccc3c(c2)N(C[C@@H]2CC[C@H]2[C@@H](OCCN2CCN(C4COC4)CC2)/C=C/C[C@H](C)C1)C[C@@]1(CCCc2cc(Cl)ccc21)CO3"
  system.under.test: "MCL1/Bim (Homo sapiens (Human), UniProt Q07820)"
  endpoint.value: 0.07
- compound: "COc1nn(C)cc1C(=O)N[S@@]1(=O)=NC(=O)c2ccc3c(c2)N(C[C@@H]2CC[C@H]2[C@@H](OC)/C=C/[C@@H](OC)[C@H](C)[C@H]1C)C[C@@]1(CCCc2cc(Cl)ccc21)CO3 [Example 68]"
  system.under.test: "MCL1/Bim (Homo sapiens (Human), UniProt Q07820)"
  endpoint.value: 0.2
- compound: "COCC#Cc1nn(C)cc1C(=O)N[S@@]1(=O)=NC(=O)c2ccc3c(c2)N(C[C@@H]2CC[C@H]2[C@@H](OC)/C=C/C[C@H](C)C1)C[C@@]1(CCCc2cc(Cl)ccc21)CO3"
  system.under.test: "MCL1/Bim (Homo sapiens (Human), UniProt Q07820)"
  endpoint.value: 0.05
- compound: "COc1nn(C)cc1C(=O)N[S@@]1(=O)=NC(=O)c2ccc3c(c2)N(C[C@@H]2CC[C@H]2C(=O)/C=C/C[C@H](C)[C@H]1C)C[C@@]1(CCCc2cc(Cl)ccc21)CO3"
  system.under.test: "MCL1/Bim (Homo sapiens (Human), UniProt Q07820)"
  endpoint.value: 0.693
- compound: "CO[C@H]1/C=C/C[C@H](C)[C@@H](C)[S@@](=O)(NC(=O)c2cnn(C3COC3)c2)=NC(=O)c2ccc3c(n2)N(C[C@@H]2CC[C@H]21)C[C@@]1(CCCc2cc(Cl)ccc21)CO3"
  system.under.test: "MCL1/Bim (Homo sapiens (Human), UniProt Q07820)"
  endpoint.value: 0.1
- compound: "CO[C@H]1/C=C/C[C@H](C)C[S@@](=O)(NC(=O)NC2CC2)=NC(=O)c2ccc3c(n2)N(C[C@@H]2CC[C@H]21)C[C@@]1(CCCc2cc(Cl)ccc21)CO3"
  system.under.test: "MCL1/Bim (Homo sapiens (Human), UniProt Q07820)"
  endpoint.value: 0.04
- compound: "CO[C@H]1/C=C/C[C@H](C)C[S@@](=O)(Nc2ncccn2)=NC(=O)c2ccc3c(c2)N(C[C@@H]2CC[C@H]21)C[C@@]1(CCCc2cc(Cl)ccc21)CO3"
  system.under.test: "MCL1/Bim (Homo sapiens (Human), UniProt Q07820)"
  endpoint.value: 0.957
- compound: "CO[C@H]1/C=C/C[C@H](C)C[S@@](=O)(NC(=O)[C@H]2C[C@@](C)(O)C2)=NC(=O)c2ccc3c(n2)N(C[C@@H]2CC[C@H]21)C[C@@]1(CCCc2cc(Cl)ccc21)CO3"
  system.under.test: "MCL1/Bim (Homo sapiens (Human), UniProt Q07820)"
  endpoint.value: 0.15
- compound: "CO[C@H]1/C=C/C[C@H](C)C[S@@](=O)(Nc2nc(NCCN3CCOCC3)nc3nn(C)cc23)=NC(=O)c2ccc3c(c2)N(C[C@@H]2CC[C@H]21)C[C@@]1(CCCc2cc(Cl)ccc21)CO3"
  system.under.test: "MCL1/Bim (Homo sapiens (Human), UniProt Q07820)"
  endpoint.value: 0.313

====

Tested on: SKBR3 cells
experiment: SKBR3 Cell Viability Assay
Assay type: cell-based
condition.parameters: 72 hours, CellTiter Glo, read-out: MCL1 CV SKBR3 EC50

- compound: "COc1nn(C)cc1C(=O)N[S@@]1(=O)=NC(=O)c2ccc3c(c2)N(C[C@@H]2CC[C@H]2/C=C/[C@@H](O)[C@H](NC(C)=O)[C@H](C)C1)C[C@@]1(CCCc2cc(Cl)ccc21)CO3 [Example 119]"
  EC50: "244 nM"
- compound: "COc1nn(C)cc1C(=O)N[S@@]1(=O)=NC(=O)c2ccc3c(c2)N(C[C@@H]2CC[C@H]2[C@@](O)(CC(=O)N2CCN4CCOCC4C2)/C=C/C[C@H](C)C1)C[C@@]1(CCCc2cc(Cl)ccc21)CO3 (stereo partly drawn) [Example 102]"
  EC50: "16.1 nM"
- compound: "COc1nn(C)cc1C(=O)N[S@@]1(=O)=NC(=O)c2ccc3c(c2)N(C[C@@H]2CC[C@H]2[C@@H](OC)/C=C/[C@@](C)(O)[C@H](C)C1)C[C@@]1(CCCc2cc(Cl)ccc21)CO3 [Example 120]"
  EC50: "35.2 nM"

====

System: SKBR3 cells
experiment: SKBR3 Cell Viability Assay
Assay type: cell-based
condition.parameters: 72 hours, CellTiter Glo, read-out: MCL1 CV SKBR3 EC50
pEC50: −log10 of the molar value.
Measured pEC50, listed per entry.
measurement.kind: pEC50

- molecule: "COc1nn(C)cc1C(=O)N[S@@]1(=O)=NC(=O)c2ccc3c(c2)N(C[C@@H]2CC[C@H]2[C@@H](OC)C[C@@H]2[C@H](OC[C@H]2C)[C@H](C)C1)C[C@@]1(CCCc2ccccc21)CO3 [Example 147]"
  system.under.test: "SKBR3 cells"
  measurement.kind: "pEC50"
  endpoint.value: 6.27
- molecule: "CCn1ccc(OC[C@H]2C/C=C/[C@H](OC)[C@@H]3CC[C@H]3CN3C[C@@]4(CCCc5cc(Cl)ccc54)COc4ccc(cc43)C(=O)N=[S@@](=O)(NC(=O)COC3CCOCC3)C2)n1 [Example 46]"
  system.under.test: "SKBR3 cells"
  measurement.kind: "pEC50"
  endpoint.value: 5.80
- molecule: "COc1nn(C)cc1C(=O)N[S@@]1(=O)=NC(=O)c2ccc3c(c2)N(C[C@@H]2CC[C@H]2[C@@H](OC)C[C@@H]2[C@H](OC[C@@H]2C)[C@H](C)C1)C[C@@]1(CCCc2ccccc21)CO3 [Example 148]"
  system.under.test: "SKBR3 cells"
  measurement.kind: "pEC50"
  endpoint.value: 5.77
- molecule: "COc1nn(C)cc1C(=O)N[S@@]1(=O)=NC(=O)c2ccc3c(c2)N(C[C@@H]2CC[C@H]2[C@](O)(CC(=O)N2CCN(C)CC2)/C=C/C[C@H](C)C1)C[C@@]1(CCCc2cc(Cl)ccc21)CO3 [Example 101]"
  system.under.test: "SKBR3 cells"
  measurement.kind: "pEC50"
  endpoint.value: 7.57
- molecule: "COc1nn(C)cc1C(=O)N[S@@]1(=O)=NC(=O)c2ccc3c(c2)N(C[C@@H]2CC[C@H]2[C@H](OC)/C=C/[C@@](C)(O)[C@H](C)C1)C[C@@]1(CCCc2cc(Cl)ccc21)CO3 [Example 121]"
  system.under.test: "SKBR3 cells"
  measurement.kind: "pEC50"
  endpoint.value: 7.17
- molecule: "COc1nn(C)cc1C(=O)N[S@]1(=O)=NC(=O)c2ccc3c(c2)N(C[C@@H]2CC[C@H]2C(=O)/C=C/C[C@H](C)C1)C[C@@]1(CCCc2cc(Cl)ccc21)CO3 [Example 47]"
  system.under.test: "SKBR3 cells"
  measurement.kind: "pEC50"
  endpoint.value: 7.09
- molecule: "COc1nn(C)cc1C(=O)N[S@@]1(=O)=NC(=O)c2ccc3c(c2)N(C[C@@H]2CC[C@H]2[C@@](O)(CC(=O)N2CCOCC2)/C=C/C[C@H](C)C1)C[C@@]1(CCCc2cc(Cl)ccc21)CO3 [Example 98]"
  system.under.test: "SKBR3 cells"
  measurement.kind: "pEC50"
  endpoint.value: 7.13
- molecule: "C=CCO[C@H]1/C=C/C[C@H](C)C[S@@](=O)(NC(=O)c2cn(C)nc2OC)=NC(=O)c2ccc3c(c2)N(C[C@@H]2CC[C@H]21)C[C@@]1(CCCc2cc(Cl)ccc21)CO3 [Example 54]"
  system.under.test: "SKBR3 cells"
  measurement.kind: "pEC50"
  endpoint.value: 6.99
- molecule: "COc1nn(C)cc1C(=O)N[S@@]1(=O)=NC(=O)c2ccc3c(c2)N(C[C@@H]2CC[C@H]2[C@@H](OC)C[C@H]2CCO[C@@H]2[C@H](C)[C@H]1C)C[C@@]1(CCCc2cc(Cl)ccc21)CO3 [Example 159]"
  system.under.test: "SKBR3 cells"
  measurement.kind: "pEC50"
  endpoint.value: 6.42
